Each recorded value in this set is attributed to patent US9540323B2.

# Tested on: human platelet rich plasma (PRP)
# ASSAY_DETAILS: ADP induced platelet aggregation assay
# RUN_CONDITIONS: Homo sapiens, Platelet, 5 min, read-out: PA IC50 (μM) @ 10 μM ADP, human PRP, 10 μM ADP, AUC at 5 minute
VALUE_TYPE: IC50 (µM)
Express it in µM; write the number only.

Need IC50, item CCC1(CC)CN(c2ccccc2NC(=O)Nc2nc(C(C)C)ns2)c2c(O)ccc(Cl)c21
0.48

And what about the compound CCC1(CC)CN(c2ccccc2NC(=O)Nc2ccc(C3CCCN3CC(C)C)cc2)c2c1ccc(F)c2O (stereo not shown) ?
0.21

And what about the compound CC1(C)CN(c2ccccc2NC(=O)Nc2ccc(OC(F)(F)F)cc2)c2c(O)c(F)cc(Cl)c21 ?
0.83

And what about the compound CC1(C)CN(c2ccccc2NC(=O)Nc2ccc(OC(F)(F)F)cc2)c2c(O)cc(F)c(-c3ccc(F)nc3)c21 ?
0.38

And what about the compound CC1(C)CN(c2ccccc2NC(=O)Nc2nc3ccc(F)cc3s2)c2c(O)ccc(-c3nc4ccc(F)cc4s3)c21 ?
0.35

And what about the compound CCC1(CC)CN(c2ccccc2NC(=O)Nc2ccc(C(F)(F)F)cc2)c2c(O)ccc(Cl)c21 ?
0.28

And what about the compound CC1(C)CN(c2ccccc2NC(=O)Nc2csc(Cl)n2)c2c(O)ccc(Cl)c21 ?
0.32

And what about the compound CC1(C)CN(c2ccccc2NC(=O)Nc2nc3ccc(Cl)cc3s2)c2c(O)ccc(Br)c21 ?
0.47

And what about the compound CC1(C)CN(c2ccccc2NC(=O)Nc2ccc(OC(F)(F)F)cc2)c2c(O)ccc(-c3ccc(F)cc3)c21 ?
0.12

And what about the compound CC1(C)CN(c2ccccc2NC(=O)Nc2nc3ccc(F)cc3s2)c2c(O)cc(F)c(-c3nc4cc(Cl)ccc4s3)c21 ?
0.47

And what about the compound CC1(C)CN(c2ccccc2NC(=O)Nc2nc3ccc(F)cc3s2)c2c(O)ccc(-c3nc4cc(F)ccc4s3)c21 ?
0.36

And what about the compound CCc1ccc(NC(=O)Nc2ccccc2N2CC(CC)(CC)c3c(F)ccc(O)c32)cc1 ?
1.02

And what about the compound CC(C)(C)CN1CCC(NC(=O)Nc2ccccc2N2CC(C)(C)c3c(-c4ccc(C(F)(F)F)cc4)c(F)cc(O)c32)CC1 ?
0.25

And what about the compound CCC1(CC)CN(c2ccccc2NC(=O)Nc2ccc(C3CCN(CC(C)(C)C)CC3)cc2)c2c(O)ccc(F)c21 ?
0.36

And what about the compound CC(C)CN1CCC(c2ccc(NC(=O)Nc3ccccc3N3CC(C)(C)c4c(-c5ccc(F)cc5)ccc(O)c43)cc2)CC1 ?
0.46

And what about the compound CC1(C)CN(c2ccccc2NC(=O)Nc2nc3ccc(F)nc3s2)c2c(O)cc(F)c(-c3nc4cc(Cl)ccc4s3)c21 ?
0.28

And what about the compound CCC1(CC)CN(c2ccccc2NC(=O)Nc2csc(Cl)n2)c2c(O)ccc(F)c21 ?
0.53

And what about the compound CC1(C)CN(c2c(F)cccc2NC(=O)Nc2ccc(F)cc2F)c2c(O)ccc(C(F)(F)F)c21 ?
0.75

* * *

Exercise: state measured log10 IC50 for each of the molecules provided.
# Test system: human platelet rich plasma (PRP)
# ASSAY_DETAILS: ADP induced platelet aggregation assay
# RUN_CONDITIONS: Homo sapiens, Platelet, 5 min, read-out: PA IC50 (μM) @ 10 μM ADP, human PRP, 10 μM ADP, AUC at 5 minute
Recorded IC50 (log10, µM)

Need log10 IC50, item Cc1nnc(-c2ccc(O)c3c2C(C)(C)CN3c2ccccc2NC(=O)Nc2ccc(OC(F)(F)F)cc2)o1
0.70

And what about the molecule CC1(C)CN(c2ccccc2NC(=O)Nc2nc3ccc(F)cc3s2)c2c(O)cc(F)c(-c3nc4cc(F)ccc4s3)c21 ?
-0.52

And what about the molecule Cc1nc(NC(=O)Nc2ccccc2N2CC(C)(C)c3c(C(F)(F)F)ccc(O)c32)cs1 ?
-0.02

And what about the molecule CC1(C)CN(c2ccccc2NC(=O)Nc2ccc(C(F)(F)F)cc2)c2c(O)ccc(Cl)c21 ?
-0.05

And what about the molecule CC1(C)CN(c2ccccc2NC(=O)Nc2ccc(OC(F)(F)F)cc2)c2c(O)cc(F)c(-c3nc4ccc(Cl)cc4s3)c21 ?
-0.17

And what about the molecule Cc1nn(C)c(C)c1-c1c(F)cc(O)c2c1C(C)(C)CN2c1ccccc1NC(=O)Nc1ccc(OC(F)(F)F)cc1 ?
0.03

And what about the molecule CC1(C)CN(c2ccccc2NC(=O)Nc2ccc(OC(F)(F)F)cc2)c2c(O)ccc(-c3ccc(F)cc3F)c21 ?
-0.80

And what about the molecule CC1(C)CN(c2ccccc2NC(=O)Nc2ccc(OC(F)(F)F)cc2)c2c(O)ccc(-c3nc4ccc(F)cc4o3)c21 ?
-0.70

And what about the molecule CCC1(CC)CN(c2ccccc2NC(=O)Nc2nc3c(s2)CN(CC(C)C)CC3)c2c(O)ccc(Cl)c21 ?
-0.82

And what about the molecule CC1(C)CN(c2ccccc2NC(=O)Nc2ccc(OC(F)(F)F)cc2)c2c(O)cc(F)c(-c3cccc(C#N)c3)c21 ?
-0.06

And what about the molecule CC1(C)CN(c2ccccc2NC(=O)Nc2ccc(OC(F)(F)F)cc2)c2c(O)cc(F)c(-c3ccc(Cl)cc3)c21 ?
-0.68

And what about the molecule CC1(C)CN(c2ccccc2NC(=O)Nc2nc3c(s2)CN(CC2CC2)CC3)c2c(O)ccc(C(F)(F)F)c21 ?
0.00

And what about the molecule CC1(C)CN(c2ccccc2NC(=O)Nc2ccc(OC(F)(F)F)cc2)c2c(O)cc(F)c(-c3ccc(Cl)cc3F)c21 ?
-0.64

And what about the molecule CC1(C)CN(c2ccccc2NC(=O)Nc2csc(Cl)n2)c2c(O)ccc(-c3ccc(F)cc3)c21 ?
-1.05

And what about the molecule CCC1(CC)CN(c2ccccc2NC(=O)Nc2ccc(C3CCCN3CC(C)(C)C)cc2)c2c(O)ccc(F)c21 (stereo not drawn) ?
-0.52

And what about the molecule CC(C)(C)c1ccc(NC(=O)Nc2ccccc2N2CC(C)(C)c3c(C(F)(F)F)ccc(O)c32)cc1 ?
-0.89

And what about the molecule CC1(C)CN(c2ccccc2NC(=O)Nc2ccc(OC(F)(F)F)cc2)c2c(O)ccc(-c3cc(F)cc(F)c3)c21 ?
-0.74

And what about the molecule CC1(C)CN(c2ccccc2NC(=O)Nc2ccc(OC(F)(F)F)cc2)c2c(O)ccc(-c3ccc(F)nc3)c21 ?
-0.51

And what about the molecule CC1(C)CN(c2ccccc2NC(=O)Nc2ccc(OC(F)(F)F)cc2)c2c(O)c(F)cc(-c3ccc(Cl)cc3)c21 ?
-0.52

And what about the molecule CC1(C)CN(c2ccccc2NC(=O)Nc2ccc(OC(F)(F)F)cc2)c2c(O)cc(F)c(-c3ccc(C(F)(F)F)nc3)c21 ?
-0.82

* * *

# ASSAY_TARGET: cloned human P2Y1 receptors (Homo sapiens (Human), UniProt P47900)
# Sequence (P47900 whole entry): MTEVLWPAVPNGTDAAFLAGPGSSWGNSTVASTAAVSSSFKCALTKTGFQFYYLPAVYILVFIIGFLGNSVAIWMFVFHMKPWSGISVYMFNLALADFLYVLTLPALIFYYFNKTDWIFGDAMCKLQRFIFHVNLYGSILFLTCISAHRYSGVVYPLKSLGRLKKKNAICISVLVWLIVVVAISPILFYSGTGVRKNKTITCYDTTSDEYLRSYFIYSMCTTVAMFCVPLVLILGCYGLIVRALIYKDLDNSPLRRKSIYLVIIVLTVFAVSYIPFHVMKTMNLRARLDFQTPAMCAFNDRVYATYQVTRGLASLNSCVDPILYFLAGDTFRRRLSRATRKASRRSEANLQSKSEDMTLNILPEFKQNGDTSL
# ASSAY_DETAILS: Binding Assay B - Scintillation Proximity Assay (SPA) for P2Y1 binding, [33P] 2MeS-ADP
# RUN_CONDITIONS: SPA, 0.3 nM [33P] 2MeS-ADP, Cheng-Prusoff; read-out: P2Y1 Ki (nM) using binding assay B
Exercise: state measured Ki for each of the compounds provided.
Express it in nM; write the number only.

Need Ki, item CC1(C)CN(c2ccccc2NC(=O)Nc2ccc(OC(F)(F)F)cc2)c2c(O)ccc(-c3ncc(F)cn3)c21
10.2

And what about the compound CCC1(CC)CN(c2ccccc2NC(=O)Nc2csc(Cl)n2)c2c(O)ccc(F)c21 ?
3.3

And what about the compound COc1ccc2nc(NC(=O)Nc3ccccc3N3CC(C)(C)c4c(-c5nc6ccc(Cl)cc6o5)ccc(O)c43)sc2n1 ?
15.4

And what about the compound CC1(C)CN(c2ccccc2NC(=O)Nc2ccc(OC(F)(F)F)cc2)c2c(O)c(F)cc(Br)c21 ?
18.1

And what about the compound CC1(C)CN(c2ccccc2NC(=O)Nc2ccc(OC(F)(F)F)cc2)c2c(O)ccc(-c3nc4cc(F)ccc4s3)c21 ?
14.1

And what about the compound CC1(C)CN(c2ccccc2NC(=O)Nc2ccc(OC(F)(F)F)cc2)c2c(O)cc(F)c(-c3ccc(Cl)cc3F)c21 ?
17

* * *

# System: human platelet rich plasma (PRP)
# ASSAY_DETAILS: ADP induced platelet aggregation assay
# RUN_CONDITIONS: Homo sapiens, Platelet, 5 min, read-out: PA IC50 (μM) @ 10 μM ADP, human PRP, 10 μM ADP, AUC at 5 minute
VALUE_TYPE: IC50
Hi, when you answer, please include the unit after the number. Thanks!

Need IC50, item CC1(C)CN(c2ccccc2NC(=O)Nc2ccc(OC(F)(F)F)cc2)c2c(O)ccc(-c3nc4ccc(Cl)cc4s3)c21
0.5 µM

And what about the compound CC(C)n1nc(C(F)(F)F)cc1-c1c(F)cc(O)c2c1C(C)(C)CN2c1ccccc1NC(=O)Nc1nc2ccc(F)cc2s1 ?
0.51 µM

And what about the compound CC1(C)CN(c2ccccc2NC(=O)Nc2ccc(OC(F)(F)F)cc2)c2c(O)ccc(-c3nc4cc(Cl)ccc4s3)c21 ?
0.38 µM

And what about the compound CC1(C)CN(c2ccccc2NC(=O)Nc2csc(Cl)n2)c2c(O)cc(F)c(-c3nc4cc(Cl)ccc4s3)c21 ?
0.47 µM

And what about the compound CCOC(=O)C1(C)CN(c2ccccc2NC(=O)Nc2nc3ccc(F)cc3s2)c2c(O)ccc(Cl)c21 (stereo not shown) ?
0.4 µM

And what about the compound CCOC(=O)c1ccc(O)c2c1C(C)(C)CN2c1ccccc1NC(=O)Nc1ccc(OC(F)(F)F)cc1 ?
0.91 µM

And what about the compound CC1(C)CN(c2ccccc2NC(=O)Nc2ccc(OC(F)(F)F)cc2)c2c(O)ccc(-c3ccc(C(F)(F)F)cn3)c21 ?
0.15 µM

And what about the compound CC1(C)CN(c2ccc(F)cc2NC(=O)Nc2nc3ccc(F)cc3s2)c2c(O)ccc(C(F)(F)F)c21 ?
0.18 µM

And what about the compound CC(C)(C)c1nc(-c2c(F)cc(O)c3c2C(C)(C)CN3c2ccccc2NC(=O)Nc2nc3ccc(Cl)cc3s2)co1 ?
0.43 µM

And what about the compound Cc1nc(-c2c(F)cc(O)c3c2C(C)(C)CN3c2ccccc2NC(=O)Nc2ccc(OC(F)(F)F)cc2)co1 ?
3.39 µM

And what about the compound CC(C)(C)c1ccc(-c2c(F)cc(O)c3c2C(C)(C)CN3c2ccccc2NC(=O)Nc2ccc(OC(F)(F)F)cc2)cc1 ?
0.15 µM

And what about the compound Cc1cc(-c2c(F)cc(O)c3c2C(C)(C)CN3c2ccccc2NC(=O)Nc2ccc(OC(F)(F)F)cc2)ccn1 ?
0.19 µM

And what about the compound CC1(C)CN(c2ccccc2NC(=O)Nc2ccc(OC(F)(F)F)cc2)c2c(O)c(F)cc(-c3ccc(C(F)(F)F)cn3)c21 ?
0.71 µM
